Reported Ki values follow for various compounds
target-entity: HCV genotype 1b (BK) NS3 modified enzyme with a R155K mutation (Hepatitis C virus genotype 1b, UniProt P26663, R1181K)
Construct: HCV genotype 1b (BK) NS3 modified enzyme
test-name: HCV NS3 protease time-resolved fluorescence (TRF) assay, genotype 1b R155K
Format: biochemical
condition-notes: Ki 1b R155K, genotype 1b (BK) NS3 R155K; single value
reported-metric: Ki (nM)

compound	unit-symbol	readout-number
C=C[C@@H]1C[C@]1(NC(=O)[C@@H]1C[C@@H]2CN1C(=O)[C@H](C1CCCC1)NC(=O)O[C@@H]1CCC[C@H]1CC/C=C/Cc1c(nc3ccccc3c1OCCCn1cnnc1)O2)C(=O)NS(=O)(=O)C1(C)CC1	nM	0.11
C=C[C@@H]1C[C@]1(NC(=O)[C@@H]1C[C@@H]2CN1C(=O)[C@H](C(C)(C)C)NC(=O)O[C@@H]1C[C@H]1CCCCCc1c(nc3ccccc3c1OCCc1cccnc1)O2)C(=O)NS(=O)(=O)C1(C)CC1	nM	0.035
C=C[C@@H]1C[C@]1(NC(=O)[C@@H]1C[C@@H]2CN1C(=O)[C@H](C(C)(C)C)NC(=O)O[C@@H]1C[C@H]1CCCCCc1c(nc3ccccc3c1OCCCN(CC(O)c1ccc(O)c(O)c1)C(C)C)O2)C(=O)NS(=O)(=O)C1(C)CC1 (stereo partly drawn)	nM	0.033
C=C[C@@H]1C[C@]1(NC(=O)[C@@H]1C[C@@H]2CN1C(=O)[C@H](C(C)(C)C)NC(=O)O[C@@H]1C[C@H]1CCCCCc1c(nc3ccccc3c1OCCCN(C)Cc1ccn[nH]1)O2)C(=O)NS(=O)(=O)C1(C)CC1	nM	0.05
C=C[C@@H]1C[C@]1(NC(=O)[C@@H]1C[C@@H]2CN1C(=O)[C@H](C(C)(C)C)NC(=O)O[C@@H]1C[C@H]1CCCCCc1c(nc3ccccc3c1OC1CN(CC3CC3)C1)O2)C(=O)NS(=O)(=O)C1(C)CC1	nM	0.055
C=C[C@@H]1C[C@]1(NC(=O)[C@@H]1C[C@@H]2CN1C(=O)[C@H](C(C)(C)C)NC(=O)O[C@@H]1C[C@H]1CCCCCc1c(nc3ccccc3c1OCCc1ccccn1)O2)C(=O)NS(=O)(=O)C1(C)CC1	nM	0.27
CC[C@@H]1C[C@]1(NC(=O)[C@@H]1C[C@@H]2CN1C(=O)[C@H](C1CCCC1)NC(=O)O[C@@]1(C)CCC[C@@H]1CCCCCc1c(nc3ccccc3c1O)O2)C(=O)NS(=O)(=O)C1CC1	nM	4.1
C=C[C@@H]1C[C@]1(NC(=O)[C@@H]1C[C@@H]2CN1C(=O)[C@H](C(C)(C)C)NC(=O)O[C@@H]1C[C@H]1CCCCCc1c(nc3c(F)cccc3c1OCCN1CCCCC1)O2)C(=O)NS(=O)(=O)C1(C)CC1	nM	0.36
C=C[C@@H]1C[C@]1(NC(=O)[C@@H]1C[C@@H]2CN1C(=O)[C@H](C(C)(C)C)NC(=O)O[C@@H]1C[C@H]1CCCCCc1c(nc3ccccc3c1OCCCN1CCOCC1)O2)C(=O)NS(=O)(=O)C1(C)CC1	nM	0.17

###

target-entity: HCV NS3 protease genotype 3a (3A-1) (Hepatitis C virus genotype 3a, UniProt Q81258)
test-name: HCV NS3 protease time-resolved fluorescence (TRF) assay, genotype 3a
Type: biochemical
condition-notes: Ki 3a
Reported Ki values follow for various compounds

compound	target-entity	Ki / nM
C=C[C@@H]1C[C@]1(NC(=O)[C@@H]1C[C@@H]2CN1C(=O)[C@H](C(C)(C)C)NC(=O)O[C@@H]1C[C@H]1CCCCCc1c(nc3ccccc3c1OCC1CCN(CC)CC1)O2)C(=O)NS(=O)(=O)C1(C)CC1	HCV NS3 protease genotype 3a (3A-1) (Hepatitis C virus genotype 3a, UniProt Q81258)	0.36
C=C[C@@H]1C[C@]1(NC(=O)[C@@H]1C[C@@H]2CN1C(=O)[C@H](C1CCCC1)NC(=O)O[C@@H]1CCC[C@H]1CCCCCc1c(nc3ccccc3c1OCCN1CC3CCC1C3)O2)C(=O)NS(=O)(=O)C1CC1	HCV NS3 protease genotype 3a (3A-1) (Hepatitis C virus genotype 3a, UniProt Q81258)	12
C=C[C@@H]1C[C@]1(NC(=O)[C@@H]1C[C@@H]2CN1C(=O)[C@H](C(C)(C)C)NC(=O)O[C@@H]1C[C@H]1CCCCCc1c(nc3ccccc3c1OCCCN1CCC3(CCCC3)C1)O2)C(=O)NS(=O)(=O)C1(C)CC1	HCV NS3 protease genotype 3a (3A-1) (Hepatitis C virus genotype 3a, UniProt Q81258)	1.3
C=C[C@@H]1C[C@]1(NC(=O)[C@@H]1C[C@@H]2CN1C(=O)[C@H](C(C)(C)C)NC(=O)O[C@@H]1CCC[C@H]1CC/C=C/Cc1c(nc3ccccc3c1OCCCN1CCCCC1)O2)C(=O)NS(=O)(=O)C1CC1	HCV NS3 protease genotype 3a (3A-1) (Hepatitis C virus genotype 3a, UniProt Q81258)	0.5
C=C[C@@H]1C[C@]1(NC(=O)[C@@H]1C[C@@H]2CN1C(=O)[C@H](C1CCCC1)NC(=O)O[C@@H]1CCC[C@H]1CC/C=C/Cc1c(nc3ccccc3c1OCCCN1CCCC1=O)O2)C(=O)NS(=O)(=O)C1CC1	HCV NS3 protease genotype 3a (3A-1) (Hepatitis C virus genotype 3a, UniProt Q81258)	0.54
C=C[C@@H]1C[C@]1(NC(=O)[C@@H]1C[C@@H]2CN1C(=O)[C@H](C1CCCC1)NC(=O)O[C@@H]1CCC[C@H]1CCCCCc1c(nc3ccccc3c1O)O2)C(=O)NS(=O)(=O)C1CC1	HCV NS3 protease genotype 3a (3A-1) (Hepatitis C virus genotype 3a, UniProt Q81258)	1.8
CC1(S(=O)(=O)NC(=O)[C@@]23C[C@H]2/C=C\CCCCC[C@@H]2NC(=O)O[C@@H]4C[C@H]4CCC/C=C/c4c(nc5ccccc5c4OCCCN4CCOCC4)O[C@@H]4C[C@@H](C(=O)N3)N(C4)C2=O)CC1	HCV NS3 protease genotype 3a (3A-1) (Hepatitis C virus genotype 3a, UniProt Q81258)	4
C=C[C@@H]1C[C@]1(NC(=O)[C@@H]1C[C@@H]2CN1C(=O)[C@H](C(C)(C)C)NC(=O)O[C@@H]1C[C@H]1CCCCCc1c(nc3ccccc3c1OCCN1CCC(C)(O)CC1)O2)C(=O)NS(=O)(=O)C1(C)CC1	HCV NS3 protease genotype 3a (3A-1) (Hepatitis C virus genotype 3a, UniProt Q81258)	0.89
C=C[C@@H]1C[C@]1(NC(=O)[C@@H]1C[C@@H]2CN1C(=O)[C@H](C(C)(C)C)NC(=O)O[C@@H]1C[C@H]1CCCCCc1c(nc3ccccc3c1OCC1CN(C(=O)OC(C)(C)C)C1)O2)C(=O)NS(=O)(=O)C1(C)CC1	HCV NS3 protease genotype 3a (3A-1) (Hepatitis C virus genotype 3a, UniProt Q81258)	15
C=C[C@@H]1C[C@]1(NC(=O)[C@@H]1C[C@@H]2CN1C(=O)[C@H](C1CCCCC1)NC(=O)O[C@@H]1C[C@H]1CCCCCc1c(nc3ccccc3c1OC1CC3CCC(C1)N3C(=O)OC(C)(C)C)O2)C(=O)NS(=O)(=O)C1(C)CC1 (some centres unmarked)	HCV NS3 protease genotype 3a (3A-1) (Hepatitis C virus genotype 3a, UniProt Q81258)	140
C=C[C@@H]1C[C@]1(NC(=O)[C@@H]1C[C@@H]2CN1C(=O)[C@H](C1(C)CCCCC1)NC(=O)O[C@@H]1C[C@H]1CCCCCc1c(nc3ccccc3c1OC1CC3CCC(C1)N3C)O2)C(=O)NS(=O)(=O)C1(C)CC1 (some centres unmarked)	HCV NS3 protease genotype 3a (3A-1) (Hepatitis C virus genotype 3a, UniProt Q81258)	0.041
C=C[C@@H]1C[C@]1(NC(=O)[C@@H]1C[C@@H]2CN1C(=O)[C@H](C(C)(C)C)NC(=O)O[C@@H]1C[C@H]1CCCCCc1c(nc3c(OC)cccc3c1OCCCN1CCCC1)O2)C(=O)NS(=O)(=O)C1(C)CC1	HCV NS3 protease genotype 3a (3A-1) (Hepatitis C virus genotype 3a, UniProt Q81258)	0.64
C=C[C@@H]1C[C@]1(NC(=O)[C@@H]1C[C@@H]2CN1C(=O)[C@H](C1CCCCC1)NC(=O)O[C@@H]1C[C@H]1CCCCCc1c(nc3ccccc3c1OCCN1CCOCC1)O2)C(=O)NS(=O)(=O)C1(C)CC1	HCV NS3 protease genotype 3a (3A-1) (Hepatitis C virus genotype 3a, UniProt Q81258)	8.8
C=C[C@@H]1C[C@]1(NC(=O)[C@@H]1C[C@@H]2CN1C(=O)[C@H](C(C)(C)C)NC(=O)O[C@@H]1C[C@H]1CCCCCc1c(nc3ccccc3c1O[C@@H]1C[C@H]3C[C@@H]1CN3CCOC)O2)C(=O)NS(=O)(=O)C1(C)CC1	HCV NS3 protease genotype 3a (3A-1) (Hepatitis C virus genotype 3a, UniProt Q81258)	1.8
C=CC1C[C@]1(NC(=O)[C@@H]1C[C@@H]2CN1C(=O)[C@H](C1CCCC1)NC(=O)O[C@@H]1CCC[C@H]1CC/C=C/Cc1c(nc3ccccc3c1OCCCN1CCC1)O2)C(=O)NS(=O)(=O)C1(C)CC1 (some centres unmarked)	HCV NS3 protease genotype 3a (3A-1) (Hepatitis C virus genotype 3a, UniProt Q81258)	0.56
C=C[C@@H]1C[C@]1(NC(=O)[C@@H]1C[C@@H]2CN1C(=O)[C@H](C1CCCC1)NC(=O)O[C@@H]1CCC[C@H]1CC/C=C/Cc1c(nc3ccccc3c1OCCCN)O2)C(=O)NS(=O)(=O)C1CC1	HCV NS3 protease genotype 3a (3A-1) (Hepatitis C virus genotype 3a, UniProt Q81258)	0.59
CC1(S(=O)(=O)NC(=O)[C@@]23C[C@H]2/C=C\CCCCC[C@@H]2NC(=O)O[C@@H]4C[C@H]4CCC/C=C/c4c(nc5ccccc5c4OCCCN4CCCC4)O[C@@H]4C[C@@H](C(=O)N3)N(C4)C2=O)CC1	HCV NS3 protease genotype 3a (3A-1) (Hepatitis C virus genotype 3a, UniProt Q81258)	3.6

Values from patent US9328138B2
